Target: T1, human p300BRP (residues 1048–1282), wild type (human, UniProt Q09472 1048-1282, fluorescently labeled with a His tag Labeling Kit (microscale thermophoresis only))
T1 chain: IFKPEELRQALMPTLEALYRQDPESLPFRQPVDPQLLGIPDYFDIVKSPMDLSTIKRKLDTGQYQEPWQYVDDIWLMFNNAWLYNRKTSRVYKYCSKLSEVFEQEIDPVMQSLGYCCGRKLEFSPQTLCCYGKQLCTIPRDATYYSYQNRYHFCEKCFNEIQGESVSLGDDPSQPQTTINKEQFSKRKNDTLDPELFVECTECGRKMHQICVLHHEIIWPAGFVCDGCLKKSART
Test: ITC
Where no end group is shown, it is not given here.
Reported metric: Kd

Query string: Fill in the blank: the reported Kd of PAPKK(Ac)GSK(Ac)KAVTK [di-acetylated H2B peptide K12ac/K15ac] is ____.
Result string: > 500 µM

These measurements were taken from paper PMC10352329.
